Cited source for all entries: patent US20210116454A1

# Tested on: WSU-DLCL2 M-Parental
# experiment description: Viable cells/apoptosis in doxorubicin-resistant and matching parental lines
# Format: cell-based
# measurement setup: Homo sapiens, WSUDLCL2, read-out: Doxorubicin IC50
measured quantity: pIC50
Numbers only, as −log10 of the molar value.

Short answer please: pIC50, WSU-DLCL2 M-Parental, entry COc1cccc2c1C(=O)c1c(O)c3c(c(O)c1C2=O)C[C@@](O)(C(=O)CO)C[C@@H]3O[C@H]1C[C@H](N)[C@H](O)[C@H](C)O1 [Doxorubicin, reference compound] 8.00

----------
# Tested on: OCI-LY-19
# experiment description: 5-day viable cell number and apoptosis (7-AAD exclusion/Annexin V flow cytometry)
# Format: cell-based
# measurement setup: Homo sapiens, OCI-LY19, 120 h; OCI-LY-19 cells, 5 days; read-out: % Viable Cells IC50
measured quantity: pIC50
Give bare numbers, as −log10 of the molar value.

Name the reported pIC50 value associated with the compound O=C1CC[C@H](N2C(=O)c3cccc(NCc4ccc(CN5CC(N6CCOCC6)C5)cc4F)c3C2=O)C(=O)N1 7.52
